Test system: U251 CNS
TEST METHOD NOTES: NCI tumour cell line growth inhibition, 48 h
Where a SMILES comes first, the peptide text is derived from it. [ ]: non-standard residue; d: D form. The star is where a group is joined. Bn2Val = CC(C)[C@@H](C(=O)*)N(Cc1ccccc1)Cc1ccccc1; NHPiperonyl = c1cc2c(cc1CN*)OCO2; NMeV = CN[C@H](C(=O)O)C(C)C; dNMeA = CN[C@H](C)C(=O)O
The following compounds are shown together with reported TGI values.

COMPOUND: CO[C@H](C(=O)O[C@H]1C(=O)N2CCC3CCC1C32C)c1ccccc1 (stereo not given in full)
UNITS: µM
QUALIFIER SIGN: >
TGI: 100
//
COMPOUND: COc1cc(/C=C/C(=O)c2ccc(F)cc2)ccc1OCCCCOc1cc2c(cc1OC)C(=O)N1CCCC1C=N2 (stereo not given)
UNITS: µM
QUALIFIER SIGN: =
TGI: 7.85
//
COMPOUND: O=c1[nH]ccc2nc(N3CCC(O)CC3)nc(Nc3ccc(N4CCOCC4)cc3)c12
UNITS: µM
QUALIFIER SIGN: >
TGI: 100
//
COMPOUND: COC(=O)CCC(=O)Nc1cccc(C(F)(F)F)c1
UNITS: µM
QUALIFIER SIGN: >
TGI: 100
//
COMPOUND: CC(C)[C@H](NC(=O)[C@H](C(C)C)N(Cc1ccccc1)Cc1ccccc1)C(=O)N(C)[C@H](C(=O)N1CCC[C@H]1C(=O)N(C)[C@H](C)C(=O)NCc1ccc2c(c1)OCO2)C(C)C (Bn2Val-V[NMeV]P[dNMeA]-NHPiperonyl)
UNITS: µM
QUALIFIER SIGN: =
TGI: 43
